Values from patent US20220017629A1

# subject of test: T1, OX40 (antigen of the competitive ELISA of Example 5) (UniProt P43489 29-214)
# T1 sequence (looked up): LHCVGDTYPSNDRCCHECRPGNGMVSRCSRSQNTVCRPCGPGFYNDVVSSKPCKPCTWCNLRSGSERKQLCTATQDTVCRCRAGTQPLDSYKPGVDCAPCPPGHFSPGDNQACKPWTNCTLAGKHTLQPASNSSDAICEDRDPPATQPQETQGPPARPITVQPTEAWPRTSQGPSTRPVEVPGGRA
# protocol details: competitive ELISA; competitor MEDI0562
For each of the binders below, state its percentage of competition.
API: value field is a number in %; no unit string.

Query: Would you kindly share the measured percentage of competition for MAb053 (antibody, IgG2c, V domains shown) VH: QVQLKQSGPGLVQPSQSLSIICTVSGFSLSDYGVMWVRQSPGKGLEWLGVIWSGGSTDYNAAFTSRLSISRDNSKRQVIFKMNSLQAEDTAIHYCVRETMDYWGQGTSVTVS VL: DIQMTQTTSSLSASLGDRVTISCRASQDISNYLNWYQQRPDGTVKRLIYYTSRLHSGVPSRFSGSGSGTDYSLTISSLEQEDIATYFCQQAHTLPWTFGGGTKLEIK ?
Response: 11

Query: Fill blank: measured percentage of competition of the binder MAb064 (antibody, IgG2c, V domains shown) VH: QVQLKESGPGLVAPSQTLSITCSVSGFSLTNYAVSWVRQPPGKGLEWLGVMWGDGNTNYHSTLISRLSISKDNSKSQVFLKLNSLQTDDTATYYCARSSGWYFDVWGTGTTVTVSS VL: DIQMTQTTPSLSVTLGDRVTIRCRASQDINNYLNWYQQKPDGTVKLLIYYTSESRSGVPSRFSGSGSGTDYSLTISNLEQEDIATYFCQQGYALPPAFGGGTKLEIK is ____.
Response: 96

Query: Reported percentage of competition for MAb034 (antibody, IgG1, V domains shown) VH: EVQLQQSGPVLVKPGASVKMSCKASGYTFTDFYMNWMRQSHGKSLEWIGVIDPYNGNTSYNQKFKGKATLTVDKSSSTAYMELNSLTSEDSAVYYCARGNYYYYAMDYWGQGTSVTVSS VL: DIVLTQSPASLAVSLGQRATISCRASESVSIHGTHLMYWYQQKPGQPPKLLIYAASNLESGVPARFSGSGSETDFTLNIHPVEEEDAATFFCQQSIEDPPTFGGGTKLEIK : what is it?
Response: 13
